System: OVCAR-4 ovarian
Assay: NCI tumour cell line growth inhibition, 48 h
endpoint: TGI

Look up and report measured TGI (OVCAR-4 ovarian) for the following compound: O=C(N/N=C\c1ccc(N(CCCl)CCCl)cc1Cl)c1cccnc1
38.5 µM

Look up and report measured TGI (OVCAR-4 ovarian) for the following compound: O=C(/C=C1/NC(=O)CS1)Nc1ccccc1
> 100 µM

Look up and report measured TGI (OVCAR-4 ovarian) for the following compound: Cn1c(=O)c(C(=O)NC(=O)OCc2ccccc2)cn(CCSCCOC(=O)NCCCCCCNC(=O)OCCSCCn2cc(C(=O)NC(=O)OCc3ccccc3)c(=O)n(C)c2=O)c1=O
> 100 µM

Look up and report measured TGI (OVCAR-4 ovarian) for the following compound: O=C(Cc1ccccc1)NNc1nc(NNC(=O)c2ccncc2)nc(Nc2ccc(Cl)cc2)n1
> 10 µM

Look up and report measured TGI (OVCAR-4 ovarian) for the following compound: COc1ccc2c(c1)N=C1CSC(c3c(Cl)cccc3[N+](=O)[O-])N1C2 (stereo unspecified)
> 100 µM

Look up and report measured TGI (OVCAR-4 ovarian) for the following compound: O=C1CCCC1NC(=O)C(F)(F)F (stereo unspecified)
> 100 µM

Look up and report measured TGI (OVCAR-4 ovarian) for the following compound: Clc1ccc(-c2nnc(C34CC5CC(CC(C5)C3)C4)o2)cc1
> 100 µM

Look up and report measured TGI (OVCAR-4 ovarian) for the following compound: CCOC(=O)NC(=O)c1cn(CCN2CCN(C(=O)NCCCCCCNC(=O)N3CCN(CCn4cc(C(=O)NC(=O)OCC)c(=O)n(CCN(CC)CC)c4=O)CC3)CC2)c(=O)n(CCC(CC)CC)c1=O
> 100 µM

Look up and report measured TGI (OVCAR-4 ovarian) for the following compound: Cc1cc(N)ccc1C=O
> 100 µM

Look up and report measured TGI (OVCAR-4 ovarian) for the following compound: CC(C)c1nc2c(Cl)c3ncccc3cc2[nH]c1=O
> 100 µM

Look up and report measured TGI (OVCAR-4 ovarian) for the following compound: CC(=O)OC[C@@H](OC(C)=O)[C@@H](OC(C)=O)[C@H]1OC[C@@H]2C[C@H]([C@H]1OC(C)=O)N(Cc1ccccc1)O2
> 100 µM

Look up and report measured TGI (OVCAR-4 ovarian) for the following compound: COC(=O)C(CC(=O)Nc1ccc(Cl)c(Cl)c1)C(=O)C(=O)NC1C2CC3CC(C2)CC1C3 (stereo unspecified)
> 100 µM

Look up and report measured TGI (OVCAR-4 ovarian) for the following compound: OC(CNC1CCCC1)Cn1c2ccccc2c2ccccc21 (stereo unspecified)
> 100 µM

Look up and report measured TGI (OVCAR-4 ovarian) for the following compound: C=CCCCCCC(O)C(O)C/C=C\C/C=C\CC (stereo unspecified)
> 18.8 µM

Look up and report measured TGI (OVCAR-4 ovarian) for the following compound: CC1=Nn2c(nnc2-c2ccc(N)cc2)NC(C)(C)C1
> 100 µM

Look up and report measured TGI (OVCAR-4 ovarian) for the following compound: CC1SC(=O)SC1C (stereo unspecified)
> 100 µM

Look up and report measured TGI (OVCAR-4 ovarian) for the following compound: CC(=O)OCC1OC(n2c(C)c(C(C)=O)c(-c3cccc4ccccc34)c(C#N)c2=S)C(OC(C)=O)C(OC(C)=O)C1OC(C)=O (stereo unspecified)
> 100 µM

Look up and report measured TGI (OVCAR-4 ovarian) for the following compound: COc1ccc2c(c1)CCCN1Cc3ccccc3CC21 (stereo unspecified)
> 100 µM

Look up and report measured TGI (OVCAR-4 ovarian) for the following compound: COc1ccc2c(c1)CC1c3c(cc4c(c3-2)OCO4)CCN1C (stereo unspecified)
52.2 µM

Look up and report measured TGI (OVCAR-4 ovarian) for the following compound: N#CC(NNC(=O)c1ccccc1O)c1ccccc1 (stereo unspecified)
> 100 µM

Look up and report measured TGI (OVCAR-4 ovarian) for the following compound: C=CCN=C1NC(=O)C(CC(=O)Nc2ccc(C)cc2)S1 (stereo unspecified)
> 100 µM

---

Please provide measured GI50 for the entries that follow.
Tested on: UACC-62 melanoma
Assay: NCI tumour cell line growth inhibition, 48 h

Look up and report measured GI50 (UACC-62 melanoma) for the following compound: CCCN(CCC)C(=O)[C@H](CC)[C@@H]1CC[C@@H](C)[C@@H]([C@H](C)[C@@H](O)[C@@H](C)C(=O)[C@H](CC)C2O[C@]3(C=C[C@@H](O)[C@]4(CC[C@@](C)([C@H]5CC[C@](O)(CC)[C@H](C)O5)O4)O3)[C@H](C)C[C@@H]2C)O1 (stereo partly specified)
1710 nM

Look up and report measured GI50 (UACC-62 melanoma) for the following compound: O=C(N/N=C\c1ccc(N(CCCl)CCCl)cc1Cl)c1cccnc1
513 nM

Look up and report measured GI50 (UACC-62 melanoma) for the following compound: COc1cc(/C=C/C(=O)c2c(C)n([O-])c3ccc(Cl)cc3[n+]2=O)cc(OC)c1OC
> 100000 nM

Look up and report measured GI50 (UACC-62 melanoma) for the following compound: CS(=O)(=O)Nc1cc(-c2ccc3ncnc(Nc4ccc5c(cnn5Cc5ccccc5F)c4)c3c2)cnc1Cl
1470 nM

Look up and report measured GI50 (UACC-62 melanoma) for the following compound: CC1/C(=N/Nc2ccc([N+](=O)[O-])cc2)CC2C3(C)CCC2(C(C)C(=O)O)C(=O)C13 (stereo unspecified)
6510 nM

Look up and report measured GI50 (UACC-62 melanoma) for the following compound: COc1cccc2c(=O)c3c(sc12)c(NCCN(C)C)nc1ccccc13
1720 nM

Look up and report measured GI50 (UACC-62 melanoma) for the following compound: CSC1C(=O)c2ccccc2/C(=N/Nc2nc3ccccc3s2)C1C (stereo unspecified)
8670 nM

Look up and report measured GI50 (UACC-62 melanoma) for the following compound: Clc1ccc2c(c1)-c1ccccc1C1=NCCN12
1600 nM

Look up and report measured GI50 (UACC-62 melanoma) for the following compound: CN(C)c1ccc(O)c2c1C[C@H]1C[C@H]3[C@H](N(C)C)C(=O)C(C(N)=O)=C(O)[C@@]3(O)C(=O)C1=C2O
3350 nM

Look up and report measured GI50 (UACC-62 melanoma) for the following compound: OC(CNc1ccnc2cc(Cl)ccc12)CNC1CCCCC1 (stereo unspecified)
2150 nM

Look up and report measured GI50 (UACC-62 melanoma) for the following compound: COc1ccc2c(c1)OC(N)=C(C#N)C2c1ccc(F)cc1 (stereo unspecified)
571 nM

---

Tested on: NCI/ADR-RES ovarian
Assay: NCI tumour cell line growth inhibition, 48 h
Please provide measured GI50 for the entries that follow.

Return the recorded GI50 value; entry: COCCNC(=O)c1ccc(-c2nc3ccc4[nH]ncc4c3c3c2CCCC3)cc1
4.29 µM

Return the recorded GI50 value; entry: OCCNCCNc1c2ccccc2nc2oc3ccccc3c12
14.5 µM

Return the recorded GI50 value; entry: C=C1C(=O)O[C@H]2[C@H]1CC/C(CNS(=O)(=O)c1cccc3ccccc13)=C\CC[C@@]1(C)O[C@@H]21
5.08 µM

Return the recorded GI50 value; entry: C=CC(=O)Nc1cccc(C)c1Nc1ncc2cc(-c3c(Cl)c(OC)cc(OC)c3Cl)ccc2n1
4.07 µM

Return the recorded GI50 value; entry: CN(C)CCNC(=O)c1cc2c3ccccc3[nH]c2c2ncccc12
22.5 µM

---

Tested on: MALME-3M melanoma
Assay: NCI tumour cell line growth inhibition, 48 h
endpoint: TGI (µM)
Report the figure in µM without appending any unit label.

Return the recorded TGI value; entry: O=C1c2ccccc2-c2c1c(-c1ccccc1)c1n2C2(C(=O)c3ccccc3C2=O)C2C(=O)N(c3ccccc3)C(=O)C12 (stereo not given)
51.9

Return the recorded TGI value; entry: OC(CNc1ccnc2cc(Cl)ccc12)CNC1CCCCC1 (stereo not given)
3.8

Return the recorded TGI value; entry: Clc1ccc2c(c1)-c1ccccc1C1=NCCN12
4.17

Return the recorded TGI value; entry: N=C(N)c1ccc(-c2ccc(-c3cccs3)s2)nc1
3.57

Return the recorded TGI value; entry: CN(C)/C=C/c1nnnn1-c1ccc(I)cc1
44.7

---

Please provide measured TGI for the entries that follow.
Test system: TK-10 renal
Assay: NCI tumour cell line growth inhibition, 48 h

Return the recorded TGI value; entry: OC(CNC1CCCC1)Cn1c2ccccc2c2ccccc21 (centres undefined)
> 100 µM

Return the recorded TGI value; entry: Cc1nn(-c2nc3ccccc3[nH]2)c2c1C(c1ccc3c(c1)OCO3)CC(=O)N2 (centres undefined)
> 25.8 µM

Return the recorded TGI value; entry: CC1/C(=N/Nc2ccc([N+](=O)[O-])cc2)CC2C3(C)CCC2(C(C)C(=O)O)C(=O)C13 (centres undefined)
> 100 µM

Return the recorded TGI value; entry: Nc1ccccc1OCc1cc(=O)c(OCc2ccccc2)co1
61.2 µM

Return the recorded TGI value; entry: COc1cccc(C[C@H]2COC(=O)[C@]2(O)Cc2cccc(OC)c2)c1
> 100 µM

Return the recorded TGI value; entry: N#CC1=C(N)Oc2c(sc3c(F)cccc23)C1c1ccc(F)cc1 (centres undefined)
25.3 µM

Return the recorded TGI value; entry: COc1ccc([C@H](NC(=O)c2ccccc2)[C@@H](O)C(=O)O[C@H]2C[C@@]3(O)C(OC(=O)c4ccccc4)C4[C@](C)(C(=O)[C@H](OC(C)=O)C(=C2C)C3(C)C)[C@@H](O)C[C@H]2OC[C@@]42OC(C)=O)cc1 (some centres undefined)
> 10 µM

Return the recorded TGI value; entry: [C-]#[N+]C1(C(=O)OCC)CC1
> 100 µM

Return the recorded TGI value; entry: CC1=NN(C(=O)c2ccccc2O)C(c2ccccc2Cl)C1C(=O)Nc1ccccc1 (centres undefined)
> 100 µM
